# system: PI3Kδ (p110δ/p85α) (Homo sapiens (Human))
# method: PI3Kδ Scintillation Proximity Assay (Assay A3)
# Type: biochemical
# applied conditions: column b, Assay A3 (SPA), 20 μM ATP
Counter-ions that a name gives are not always drawn.
quantity: IC50

Guide cases for IC50, answers given:
compound	system	IC50
CCC(Nc1ncnc2[nH]cnc12)c1nc2cccc(C)n2c(=O)c1-c1ccccc1 (stereo not shown) [Example 2]	PI3Kδ (p110δ/p85α) (Homo sapiens (Human))	< 50 nM
Cc1csc2nc(C(C)Nc3nc(N)nc4[nH]cnc34)c(-c3cccc(Cl)c3)c(=O)n12 (stereo not shown) [Example 32, trifluoroacetic acid salt]	PI3Kδ (p110δ/p85α) (Homo sapiens (Human))	50 to 100 nM
Cc1ccc(-c2c(C(C)Nc3ncnc4[nH]cnc34)nc3cccc(C)n3c2=O)cc1 (stereo not shown) [Example 64, trifluoroacetic acid salt]	PI3Kδ (p110δ/p85α) (Homo sapiens (Human))	< 50 nM
Cc1csc2nc(C(C)Nc3ncnc4[nH]ccc34)c(-c3cc(F)cc(F)c3)c(=O)n12 (stereo not shown) [Example 17]	PI3Kδ (p110δ/p85α) (Homo sapiens (Human))	100 to 500 nM
CC(Nc1ncnc2[nH]cnc12)c1nc2scc(C(F)(F)F)n2c(=O)c1-c1cccc(F)c1 (stereo not shown) [Example 48]	PI3Kδ (p110δ/p85α) (Homo sapiens (Human))	50 to 100 nM
CCC(Nc1ncnc2[nH]cnc12)c1nc2cccc(C)n2c(=O)c1-c1cccc(F)c1 (stereo not shown) [Example 4]	PI3Kδ (p110δ/p85α) (Homo sapiens (Human))	50 to 100 nM

Okay, next one:
Ask: Hello, I am looking for reported IC50 with PI3Kδ (p110δ/p85α) (Homo sapiens (Human)) for Cc1cccc2nc(C(C)Nc3ncnc4[nH]cnc34)c(-c3cc(F)ccc3F)c(=O)n12 (stereo not shown) [Example 67, trifluoroacetic acid salt] . Could you help?
Result: < 50 nM

* * *

# system: PI3Kδ (p110δ/p85α) (Homo sapiens (Human), UniProt O00329)
# Sequence (O00329 whole entry, species assumed): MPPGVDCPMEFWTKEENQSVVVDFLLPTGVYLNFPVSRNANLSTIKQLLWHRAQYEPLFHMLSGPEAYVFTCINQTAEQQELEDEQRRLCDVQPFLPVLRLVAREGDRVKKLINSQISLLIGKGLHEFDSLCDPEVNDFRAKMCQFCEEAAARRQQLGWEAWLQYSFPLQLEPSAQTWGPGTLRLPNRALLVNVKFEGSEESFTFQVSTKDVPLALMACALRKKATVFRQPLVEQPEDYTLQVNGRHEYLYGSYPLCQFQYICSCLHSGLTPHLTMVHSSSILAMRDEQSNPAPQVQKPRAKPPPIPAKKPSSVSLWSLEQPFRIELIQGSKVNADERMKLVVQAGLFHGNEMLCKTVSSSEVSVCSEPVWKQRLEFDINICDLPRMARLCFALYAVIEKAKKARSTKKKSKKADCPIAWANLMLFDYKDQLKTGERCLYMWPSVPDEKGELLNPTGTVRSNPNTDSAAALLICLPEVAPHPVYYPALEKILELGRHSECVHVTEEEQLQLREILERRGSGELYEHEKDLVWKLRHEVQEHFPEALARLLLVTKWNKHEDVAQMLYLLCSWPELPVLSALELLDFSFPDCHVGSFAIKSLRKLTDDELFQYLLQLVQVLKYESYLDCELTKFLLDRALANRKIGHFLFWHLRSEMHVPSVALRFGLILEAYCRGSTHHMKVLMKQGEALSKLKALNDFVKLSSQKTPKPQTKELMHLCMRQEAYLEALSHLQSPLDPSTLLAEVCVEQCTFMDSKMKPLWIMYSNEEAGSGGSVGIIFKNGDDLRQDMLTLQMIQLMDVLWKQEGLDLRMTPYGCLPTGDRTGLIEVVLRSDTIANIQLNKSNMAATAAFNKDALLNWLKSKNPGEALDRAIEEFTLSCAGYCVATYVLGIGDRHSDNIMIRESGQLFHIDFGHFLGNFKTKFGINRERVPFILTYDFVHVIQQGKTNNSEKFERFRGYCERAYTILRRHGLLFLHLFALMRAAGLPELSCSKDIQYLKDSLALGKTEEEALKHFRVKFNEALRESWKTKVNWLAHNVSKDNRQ
# Sequence (P27986 whole entry partner, species assumed): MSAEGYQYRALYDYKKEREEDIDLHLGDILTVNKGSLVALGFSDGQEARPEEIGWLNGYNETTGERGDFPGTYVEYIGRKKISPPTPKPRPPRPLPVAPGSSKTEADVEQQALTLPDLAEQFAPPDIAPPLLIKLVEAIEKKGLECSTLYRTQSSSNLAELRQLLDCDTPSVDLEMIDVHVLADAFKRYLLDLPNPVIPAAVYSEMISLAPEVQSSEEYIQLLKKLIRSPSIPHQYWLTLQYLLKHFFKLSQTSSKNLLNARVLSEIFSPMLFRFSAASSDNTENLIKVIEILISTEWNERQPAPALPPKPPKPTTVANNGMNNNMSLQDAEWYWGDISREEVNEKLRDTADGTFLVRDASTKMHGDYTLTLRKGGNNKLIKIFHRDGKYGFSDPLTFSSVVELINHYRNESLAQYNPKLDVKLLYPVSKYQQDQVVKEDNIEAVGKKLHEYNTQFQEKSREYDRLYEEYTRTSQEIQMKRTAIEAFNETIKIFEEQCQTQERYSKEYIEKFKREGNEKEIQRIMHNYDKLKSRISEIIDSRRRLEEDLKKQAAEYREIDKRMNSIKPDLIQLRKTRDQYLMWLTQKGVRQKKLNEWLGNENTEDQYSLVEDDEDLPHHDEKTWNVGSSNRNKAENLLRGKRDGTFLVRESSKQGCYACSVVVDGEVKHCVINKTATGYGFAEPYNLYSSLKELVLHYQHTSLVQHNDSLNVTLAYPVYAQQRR
# method: AlphaScreen Assay for PI3Kδ (Assay A1)
# Format: biochemical
# applied conditions: column a, 20 μM ATP
Quick reference for IC50 among some molecules

Guide cases for IC50, answers given:
molecule	IC50
CCC(Nc1ncnc2[nH]cnc12)c1nc2cccc(C)n2c(=O)c1-c1cccc(F)c1 (stereo not shown)	100 to 500 nM
Cc1csc2nc(C(C)Nc3nc(N)nc4[nH]cnc34)c(-c3cc(F)cc(F)c3)c(=O)n12 (stereo not shown)	< 50 nM
CCC(Nc1ncnc2[nH]cnc12)c1nc2cccc(C)n2c(=O)c1-c1cc(F)cc(F)c1 (stereo not shown)	100 to 500 nM

Okay, next one:
Ask: Any idea what IC50 was measured for Cc1csc2nc(C(C)Nc3ncnc4[nH]cnc34)c(-c3ccccc3)c(=O)n12 (stereo not shown) ?
Result: 50 to 100 nM

* * *

# system: PI3Kδ (p110δ/p85α) (Homo sapiens (Human), UniProt O00329)
# method: PI3Kδ Scintillation Proximity Assay (Assay A3)
# Type: biochemical
# applied conditions: column b, Assay A3 (SPA), 20 μM ATP
# Method: [γ-^33P]ATP (10 mCi/mL) was purchased from Perkin-Elmer (Waltham, Mass.). […] The kinase reaction was conducted in polystyrene 384-well matrix white plate from Thermo Fisher Scientific in a final volume of 25 μL. […] After the plate sealing, plates were shaken overnight at room temperature and centrifuged at 1800 rpm for 10 minutes, the radioactivity of the product was determined by scintillation counting on Topcount (Perkin-Elmer). […]
Counter-ions that a name gives are not always drawn.
Quick reference for IC50 among some molecules

Guide cases for IC50, answers given:
molecule	system	IC50
Cc1csc2nc(C(C)Nc3nc(N)nc4[nH]cnc34)c(-c3ccccc3F)c(=O)n12 (centres unmarked) [Example 33, trifluoroacetic acid salt]	PI3Kδ (p110δ/p85α) (Homo sapiens (Human), UniProt O00329)	< 50 nM
Cc1cccc2nc(C(C)Nc3ncnc4[nH]cnc34)c(-c3cccc(Cl)c3)c(=O)n12 (centres unmarked) [Example 53, trifluoroacetic acid salt]	PI3Kδ (p110δ/p85α) (Homo sapiens (Human), UniProt O00329)	100 to 500 nM
Cc1cccc2nc(C(C)Nc3ncnc4[nH]cnc34)c(-c3cccc(F)c3)c(=O)n12 (centres unmarked) [Example 70, trifluoroacetic acid salt]	PI3Kδ (p110δ/p85α) (Homo sapiens (Human), UniProt O00329)	50 to 100 nM
Cc1csc2nc(C(C)Nc3nc(F)nc4[nH]cnc34)c(-c3cc(F)cc(F)c3)c(=O)n12 (centres unmarked)	PI3Kδ (p110δ/p85α) (Homo sapiens (Human), UniProt O00329)	100 to 500 nM
Cc1cccc2nc(C(C)Nc3nc(N)nc4[nH]cnc34)c(-c3cccc(C#N)c3)c(=O)n12 (centres unmarked) [Example 84, trifluoroacetic acid salt]	PI3Kδ (p110δ/p85α) (Homo sapiens (Human), UniProt O00329)	50 to 100 nM
Cc1cccc2nc(C(C)Nc3ncnc4[nH]cnc34)c(-c3ccccc3F)c(=O)n12 (centres unmarked) [Example 59, trifluoroacetic acid salt]	PI3Kδ (p110δ/p85α) (Homo sapiens (Human), UniProt O00329)	< 50 nM
Cc1cccc2nc(C(C)Nc3ncnc4[nH]cnc34)c(-c3cccc(C#N)c3)c(=O)n12 (centres unmarked) [Example 83, trifluoroacetic acid salt]	PI3Kδ (p110δ/p85α) (Homo sapiens (Human), UniProt O00329)	100 to 500 nM
Cc1csc2nc(C(C)Nc3ncnc4[nH]cnc34)c(-c3ccc(F)cc3)c(=O)n12 (centres unmarked) [Example 22, trifluoroacetic acid salt]	PI3Kδ (p110δ/p85α) (Homo sapiens (Human), UniProt O00329)	50 to 100 nM
Cc1ccc(-c2c(C(C)Nc3ncnc4[nH]cnc34)nc3scc(C)n3c2=O)cc1 (centres unmarked) [Example 31, trifluoroacetic acid salt]	PI3Kδ (p110δ/p85α) (Homo sapiens (Human), UniProt O00329)	100 to 500 nM
CCc1cccc2nc(C(C)Nc3ncnc4[nH]cnc34)c(-c3cc(F)cc(F)c3)c(=O)n12 (centres unmarked) [Example 76, trifluoroacetic acid salt]	PI3Kδ (p110δ/p85α) (Homo sapiens (Human), UniProt O00329)	100 to 500 nM

Ask: Any idea what IC50 was measured for Cc1csc2nc(C(C)Nc3nc(N)nc4[nH]cnc34)c(-c3cc(F)cc(Cl)c3)c(=O)n12 (centres unmarked) [Example 35, trifluoroacetic acid salt] ?
Result: 50 to 100 nM

Ask: Any idea what IC50 was measured for Cc1csc2nc(C(C)Nc3ncnc4[nH]cnc34)c(-c3ccccc3)c(=O)n12 (centres unmarked) ?
Result: < 50 nM

Ask: Any idea what IC50 was measured for Cc1csc2nc(C(C)Nc3ncnc4[nH]cnc34)c(-c3cc(F)ccc3F)c(=O)n12 (centres unmarked) [Example 45, trifluoroacetic acid salt] ?
Result: < 50 nM

* * *

# system: PI3Kδ (p110δ/p85α) (Homo sapiens (Human))
# method: PI3Kδ Scintillation Proximity Assay (Assay A3)
# Format: biochemical
# applied conditions: column b, Assay A3 (SPA), 20 μM ATP
Counter-ions that a name gives are not always drawn.
Quick reference for IC50 among some compounds

Ask: Any idea what IC50 was measured for Cc1csc2nc(C(C)Nc3ncnc4[nH]cnc34)c(-c3cccc(Cl)c3)c(=O)n12 (stereo not drawn) [Example 36, trifluoroacetic acid salt] ?
Result: 100 to 500 nM

Ask: Any idea what IC50 was measured for Cc1csc2nc(C(C)Nc3ncnc4[nH]cnc34)c(-c3ccccn3)c(=O)n12 (stereo not drawn) ?
Result: 50 to 100 nM

Ask: Any idea what IC50 was measured for CC(Nc1ncnc2[nH]cnc12)c1nc2sccn2c(=O)c1-c1ccccc1 (stereo not drawn) ?
Result: > 500 nM

Ask: Any idea what IC50 was measured for Cc1cccc2nc(C(C)Nc3nc(N)nc4[nH]cnc34)c(-c3cccc(Cl)c3)c(=O)n12 (stereo not drawn) [Example 54, trifluoroacetic acid salt] ?
Result: < 50 nM

Ask: Any idea what IC50 was measured for Cc1csc2nc(C(C)Nc3nc(N)nc4[nH]cnc34)c(-c3cc(F)cc(F)c3)c(=O)n12 (single isomer, unassigned) [Example 23] ?
Result: < 50 nM

Ask: Any idea what IC50 was measured for Cc1cccc2nc(C(C)Nc3nc(N)nc4[nH]cnc34)c(-c3ccccc3F)c(=O)n12 (stereo not drawn) [Example 60, trifluoroacetic acid salt] ?
Result: < 50 nM

Ask: Any idea what IC50 was measured for Cc1csc2nc(C(C)Nc3nc(N)nc4[nH]cnc34)c(-c3ccccc3)c(=O)n12 (stereo not drawn) ?
Result: < 50 nM

Ask: Any idea what IC50 was measured for CCC(Nc1ncnc2[nH]cnc12)c1nc2cccc(C)n2c(=O)c1-c1cn[nH]c1 (stereo not drawn) ?
Result: 50 to 100 nM

Ask: Any idea what IC50 was measured for Cc1cccc2nc(C(C)Nc3nc(N)nc4[nH]cnc34)c(-c3ccc(C#N)cc3)c(=O)n12 (stereo not drawn) [Example 62, trifluoroacetic acid salt] ?
Result: 100 to 500 nM
